- tested-target: Mab TrmD (Mycobacteroides abscessus, UniProt B1MDI3)
- Sequence (B1MDI3 entry or part of it): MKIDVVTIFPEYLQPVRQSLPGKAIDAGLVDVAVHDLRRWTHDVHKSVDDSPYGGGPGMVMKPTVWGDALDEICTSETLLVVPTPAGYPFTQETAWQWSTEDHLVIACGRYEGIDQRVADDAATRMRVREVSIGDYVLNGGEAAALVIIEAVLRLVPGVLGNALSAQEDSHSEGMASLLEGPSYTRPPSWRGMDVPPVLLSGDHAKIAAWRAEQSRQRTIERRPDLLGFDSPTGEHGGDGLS
- protocol-text: Isothermal titration calorimetry (ITC)
- Format: binding
- assay-setup: Table 2; ligand efficiency
measure: LE

compound | LE
CCOc1cccc(COC(=O)c2cn[nH]c2)c1 [Compound 10, 3-Ethoxybenzyl 1H-Pyrazole-4-carboxylate] | 0.38 kcal mol^–1 per heavy atom
CCOC(=O)c1cnn(CC#Cc2cc(COC(=O)c3cn[nH]c3)cc(OC)c2)c1 [Compound 12] | 0.24 kcal mol^–1 per heavy atom
COc1cc(COC(=O)c2cn[nH]c2)cc(-c2cccnc2)c1 [Compound 14] | 0.31 kcal mol^–1 per heavy atom
COc1cc(COC(=O)c2cn[nH]c2)cc(Cc2cccnc2)c1 [Compound 15] | 0.28 kcal mol^–1 per heavy atom
COc1cc(COC(=O)c2cn[nH]c2)cc(N2CCCC2)c1 [Compound 13] | 0.31 kcal mol^–1 per heavy atom

Next, consider the following compound.
QUERY: For the compound shown here, COC(=O)COc1cccc(COC(=O)c2cn[nH]c2)c1 [Compound 8] , give the reported LE.
RESULT: 0.32 kcal mol^–1 per heavy atom

* * *

Measurement record for Mab TrmD (Mycobacteroides abscessus); quantity recorded: pKd.
One number for each entry, as −log10 of the molar value.

Solved entries (count: 2):
compound | result
Cc1c(N)n[nH]c1-c1ccc2ccn(Cc3ccc(CN4CCCC4)cc3)c2c1 [Compound 30a] | 5.70
CC(C)N1CCN(Cc2ccc(Cn3ccc4ccc(-c5[nH]nc(N)c5C#N)cc43)cc2)CC1 [Compound 29e] | 7.00

Next, consider the following compound.
QUERY: For the compound shown here, Nc1cc(-c2ccc3ccn(Cc4ccc(CN5CCCCC5)cc4)c3c2)[nH]n1 [Compound 31b] , give the reported pKd.
RESULT: 6.15

* * *

- tested-target: Mab TrmD (Mycobacteroides abscessus, UniProt B1MDI3)
- protocol-text: Isothermal titration calorimetry (ITC)
- Format: binding
- assay-setup: Table 5; ligand efficiency
measure: LE

Solved entries (count: 3):
molecule | LE
N#Cc1c(N)n[nH]c1-c1ccc2c(Cl)cn(Cc3cccnc3)c2c1 [Compound 27g] | 0.28 kcal mol^–1 per heavy atom
N#Cc1c(N)n[nH]c1-c1ccc2ccn(Cc3cccnc3O)c2c1 [Compound 26j] | 0.30 kcal mol^–1 per heavy atom
N#Cc1c(N)n[nH]c1-c1ccc2ccn(Cc3ccc(O)nc3)c2c1 [Compound 26k] | 0.32 kcal mol^–1 per heavy atom

State the recorded LE for every item in the following list.
1. CN1CCCC(Cn2ccc3ccc(-c4[nH]nc(N)c4C#N)cc32)C1 (centres unmarked) [Compound 26o]
2. N#Cc1c(N)n[nH]c1-c1ccc2ccn(Cc3cccnc3)c2c1 [Compound 26g]

RESULT:
1. 0.35 kcal mol^–1 per heavy atom
2. 0.38 kcal mol^–1 per heavy atom
